Target: T1, human LTBP1-proTGFβ1 complex (human, UniProt Q14766 347-1721; P01137 30-390)
T1 construct: Large latent complex: one presenting molecule disulfide-linked to a proTGFβ1 dimer; also called Hu LTBP1-proTGFβ1; huLTBP1 proTGFβ1
T1 sequence (Q14766 347-1721 limits assumed, chain 1 of 2): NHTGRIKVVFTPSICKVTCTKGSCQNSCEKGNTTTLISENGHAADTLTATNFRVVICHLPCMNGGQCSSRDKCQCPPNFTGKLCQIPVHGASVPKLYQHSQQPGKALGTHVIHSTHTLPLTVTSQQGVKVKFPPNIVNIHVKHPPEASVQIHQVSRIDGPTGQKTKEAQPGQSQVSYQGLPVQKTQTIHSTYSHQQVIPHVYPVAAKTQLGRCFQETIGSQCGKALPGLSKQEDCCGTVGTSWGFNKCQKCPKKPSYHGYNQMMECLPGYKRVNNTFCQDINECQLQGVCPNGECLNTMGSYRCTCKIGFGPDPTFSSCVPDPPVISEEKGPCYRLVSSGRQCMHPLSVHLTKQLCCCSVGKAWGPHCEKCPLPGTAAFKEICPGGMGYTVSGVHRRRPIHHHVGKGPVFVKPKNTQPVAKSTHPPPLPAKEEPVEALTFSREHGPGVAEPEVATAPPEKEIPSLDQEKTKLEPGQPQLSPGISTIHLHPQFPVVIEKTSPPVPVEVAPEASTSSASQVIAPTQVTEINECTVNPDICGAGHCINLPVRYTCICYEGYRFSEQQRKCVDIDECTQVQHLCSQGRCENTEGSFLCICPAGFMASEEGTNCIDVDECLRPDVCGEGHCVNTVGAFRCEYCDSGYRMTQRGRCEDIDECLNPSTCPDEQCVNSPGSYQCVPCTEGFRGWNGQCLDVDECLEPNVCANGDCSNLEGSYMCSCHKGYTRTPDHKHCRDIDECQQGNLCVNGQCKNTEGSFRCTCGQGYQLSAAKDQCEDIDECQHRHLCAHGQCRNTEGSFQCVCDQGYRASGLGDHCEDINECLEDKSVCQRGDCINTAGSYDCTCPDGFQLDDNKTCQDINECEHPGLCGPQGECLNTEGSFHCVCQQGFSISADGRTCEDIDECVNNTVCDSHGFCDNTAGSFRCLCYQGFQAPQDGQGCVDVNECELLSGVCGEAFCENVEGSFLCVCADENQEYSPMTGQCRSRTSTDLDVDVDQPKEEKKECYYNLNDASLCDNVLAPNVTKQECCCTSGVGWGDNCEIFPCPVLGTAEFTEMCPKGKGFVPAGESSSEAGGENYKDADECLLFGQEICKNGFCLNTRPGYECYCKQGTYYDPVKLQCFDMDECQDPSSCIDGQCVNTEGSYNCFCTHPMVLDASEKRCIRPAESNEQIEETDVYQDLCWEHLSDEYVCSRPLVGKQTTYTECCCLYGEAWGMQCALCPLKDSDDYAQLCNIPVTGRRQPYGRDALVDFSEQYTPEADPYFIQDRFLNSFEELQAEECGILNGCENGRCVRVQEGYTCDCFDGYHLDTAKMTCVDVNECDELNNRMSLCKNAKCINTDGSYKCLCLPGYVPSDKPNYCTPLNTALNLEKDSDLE
T1 sequence (P01137 30-390 limits assumed, chain 2 of 2): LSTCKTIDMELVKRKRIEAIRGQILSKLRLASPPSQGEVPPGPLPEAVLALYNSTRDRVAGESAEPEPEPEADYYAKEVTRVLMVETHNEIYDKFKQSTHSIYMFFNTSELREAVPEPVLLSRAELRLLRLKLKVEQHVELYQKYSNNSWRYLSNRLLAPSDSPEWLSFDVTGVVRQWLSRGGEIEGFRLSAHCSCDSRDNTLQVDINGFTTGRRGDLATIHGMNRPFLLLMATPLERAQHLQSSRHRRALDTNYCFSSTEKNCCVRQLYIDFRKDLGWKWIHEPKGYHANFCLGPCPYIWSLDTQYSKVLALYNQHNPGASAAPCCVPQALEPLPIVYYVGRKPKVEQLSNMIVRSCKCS
Assay: SPR Biacore 8K, Fab over captured antigen
value type: Kd

I'd like to know its Kd. The binder in question is SR-AB57-HuFab (Fab, V domains shown, Human Fab; also called SR-AB57 Fab) VH: QVQLVESGGGVVQPGRSLRLSCAASGFTFRSYVMHWVRQAPGKGLEWVAVISHEGSGKYYADSVKGRFTISRDNSKNTLYLQMNSLRAEDTAVYYCALPRIAARRGGFGSWGQGTLVTVSS VL: NFMLTQPHSVSESPGKTVTISCTRSSGNIDYNYVQWYQQRPGSSPTTVIYEDNVRPSGVPDRFSGSIDSSSNSASLTISGLKTEDEADYYCQGYDWDTQGVVFGGGTKLTVL
0.133 nM

I'd like to know its Kd. The binder in question is SR-AB47-HuFab (Fab, V domains shown, Human Fab; also called SR-AB47 Fab) VH: QVQLVESGGGVVQPGRSLRLSCAASGFTFRSYVMHWVRQAPGKGLEWVAVISHEGSGKYYADSVKGRFTISRDNSKNTLYLQMNSLRAEDTAVYYCARPRIAARRGGFGSWGQGTLVTVSS VL: NFMLTQPHSVSESPGKTVTISCTRSSGNIDYNYVQWYQQRPGSSPTTVIYEDNVRPSGVPDRFSGSIDSSSNSASLTISGLKTEDEADYYCQSYDYDNQAVVFGGGTKLTVL
0.074 nM

Alright, here's another binder for you.
I'd like to know its Kd. The binder in question is SR-AB52-HuFab (Fab, V domains shown, Human Fab; also called SR-AB52 Fab) VH: QVQLVESGGGVVQPGRSLRLSCAASGFTFRSYVMHWVRQAPGKGLEWVAVISHEGSGKYYADSVKGRFTISRDNSKNTLYLQMNSLRAEDTAVYYCARPRIAARRGGFGTWGQGTLVTVSS VL: NFMLTQPHSVSESPGKTVTISCTRSSGNIDYNYVQWYQQRPGSSPTTVIYEDNVRPSGVPDRFSGSIDSSSNSASLTISGLKTEDEADYYCQSYDYDTQGVVFGGGTKLTVL
0.0396 nM
